# Brain AUC inf per entry
test: Pharmacokinetics assays (plasma and brain); format: in vivo; settings: brain
quantity.name: Brain AUC inf (ng·h/g)

| smiles.notation | unit.name | val |
| --- | --- | --- |
| CN(C)C1CCN(C(=O)c2ccc(-c3cn4c(-c5ccc(C#N)cc5)cnc4cn3)cc2)CC1 | ng·h/g | 99 |
| CC(=O)Nc1cc(-c2ccc3ncc(-c4ccc(C#N)cc4)n3c2)ccc1C(=O)N1CCOCC1 | ng·h/g | 161 |
| N#Cc1ccc(-c2cnc3ccc(-c4ccc(C(=O)N5CCOCC5)cc4)cn23)cc1 | ng·h/g | 2516 |
| CN1CCN(C(=O)c2ccc(-c3ccc4ncc(-c5ccc(C#N)cc5)n4c3)cc2)CC1=O | ng·h/g | 77 |

* * *

As shown below, each of these molecules has a reported half-life value.
experiment: Pharmacokinetics assays (plasma and brain); format: in vivo; conditions: plasma; read-out: Plasma T1/2 (converted)

| molecule | half-life, h |
| --- | --- |
| N#Cc1ccc(-c2cnc3cnc(-c4ccc(C(=O)N5CCOCC5)cc4)cn23)cc1 [Entry 10] | 1.11 |
| CN1CCN(C2CCN(C(=O)c3ccc(-c4ccc5ncc(-c6ccc(C#N)cc6)n5c4)cc3)CC2)CC1 [Entry 4] | 2.38 |
| CN(C)C1CCN(C(=O)c2ccc(-c3cn4c(-c5ccc(C#N)cc5)cnc4cn3)cc2)CC1 [Entry 2] | 2.06 |
| N#Cc1ccc(-c2cnc3ccc(-c4ccc(C(=O)N5CCNCC5)cc4)nn23)cc1 [Entry 6] | 1.59 |
| CN1CCN(C(=O)c2ccc(-c3cn4c(-c5ccc(C#N)cc5)cnc4cn3)cc2)CC1 [Entry 1] | 3.02 |
| N#Cc1ccc(-c2cnc3ccc(-c4ccc(C(=O)N5CCOCC5)cc4)cn23)cc1 [Entry 7] | 2.94 |
| CC(=O)Nc1cc(-c2ccc3ncc(-c4ccc(C#N)cc4)n3c2)ccc1C(=O)N1CCOCC1 [Entry 9] | 1.47 |
| N#Cc1ccc(-c2cnn3ccc(-c4ccc(C(=O)N5CCOCC5)cc4)nc23)cc1 [Entry 8] | 2.78 |
| CN1CCN(C(=O)c2ccc(-c3ccc4ncc(-c5ccc(C#N)cc5)n4c3)cc2)CC1=O [Entry 3] | 2.51 |
| N#Cc1ccc(-c2cnc3ccc(-c4ccc(C(=O)N5CCOCC5)cc4)nn23)cc1 [Entry 5] | 4.33 |

* * *

experiment: Pharmacokinetics assays (plasma and brain); format: in vivo; conditions: brain

| smiles.notation | Brain AUC inf, ng·h/g |
| --- | --- |
| CN1CCN(C(=O)c2ccc(-c3cn4c(-c5ccc(C#N)cc5)cnc4cn3)cc2)CC1 | 625 |
| N#Cc1ccc(-c2cnc3ccc(-c4ccc(C(=O)N5CCOCC5)cc4)nn23)cc1 | 8951 |
| N#Cc1ccc(-c2cnn3ccc(-c4ccc(C(=O)N5CCOCC5)cc4)nc23)cc1 | 29267 |
| N#Cc1ccc(-c2cnc3cnc(-c4ccc(C(=O)N5CCOCC5)cc4)cn23)cc1 | 775 |

* * *

experiment: Pharmacokinetics assays (plasma and brain); assay type: in vivo; settings: brain
Category | rule: reported Brain AUC last within range, see band A (below 200 ng·h/g), band B (200 ng·h/g to below 800 ng·h/g), band C (800 ng·h/g or more)

| compound | category |
| --- | --- |
| CN1CCN(C2CCN(C(=O)c3ccc(-c4ccc5ncc(-c6ccc(C#N)cc6)n5c4)cc3)CC2)CC1 [Entry 4] | band A |
| N#Cc1ccc(-c2cnc3ccc(-c4ccc(C(=O)N5CCNCC5)cc4)nn23)cc1 [Entry 6] | band A |
| N#Cc1ccc(-c2cnn3ccc(-c4ccc(C(=O)N5CCOCC5)cc4)nc23)cc1 [Entry 8] | band C |
| N#Cc1ccc(-c2cnc3ccc(-c4ccc(C(=O)N5CCOCC5)cc4)cn23)cc1 [Entry 7] | band C |
| N#Cc1ccc(-c2cnc3cnc(-c4ccc(C(=O)N5CCOCC5)cc4)cn23)cc1 [Entry 10] | band B |
| N#Cc1ccc(-c2cnc3ccc(-c4ccc(C(=O)N5CCOCC5)cc4)nn23)cc1 [Entry 5] | band C |
| CC(=O)Nc1cc(-c2ccc3ncc(-c4ccc(C#N)cc4)n3c2)ccc1C(=O)N1CCOCC1 [Entry 9] | band A |
| CN1CCN(C(=O)c2ccc(-c3ccc4ncc(-c5ccc(C#N)cc5)n4c3)cc2)CC1=O [Entry 3] | band A |
| CN(C)C1CCN(C(=O)c2ccc(-c3cn4c(-c5ccc(C#N)cc5)cnc4cn3)cc2)CC1 [Entry 2] | band A |
| CN1CCN(C(=O)c2ccc(-c3cn4c(-c5ccc(C#N)cc5)cnc4cn3)cc2)CC1 [Entry 1] | band B |

* * *

biological target: UniProt:Q9HBH9
Sequence (Q9HBH9 84-388 limits assumed): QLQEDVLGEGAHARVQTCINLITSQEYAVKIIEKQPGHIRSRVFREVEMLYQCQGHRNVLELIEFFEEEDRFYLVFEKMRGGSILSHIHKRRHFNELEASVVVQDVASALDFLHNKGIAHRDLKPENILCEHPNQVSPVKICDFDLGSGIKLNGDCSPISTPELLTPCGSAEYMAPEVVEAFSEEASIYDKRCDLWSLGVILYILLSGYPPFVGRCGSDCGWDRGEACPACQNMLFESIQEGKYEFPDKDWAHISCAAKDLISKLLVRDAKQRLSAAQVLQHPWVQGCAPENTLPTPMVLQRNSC

| smiles.notation | IC50 |
| --- | --- |
| CC(=O)NC1CCN(C(=O)c2ccc(-c3cn4c(-c5ccc(Cl)cc5)cnc4cn3)cc2)CC1 | < 1000 nM |
| N#Cc1ccc(-c2cnc3ccc(-c4ccc(C(=O)N5CCN(c6ccncc6)CC5)cc4)cn23)cc1 | < 100 nM |
| CC(=O)Nc1cc(-c2ccc3ncc(-c4ccc(C#N)cc4)n3n2)ccc1C(=O)N1CCOCC1 | < 100 nM |

* * *

assay: Pharmacokinetics assays (plasma and brain); type: in vivo; set-up: concentration or dose not given beside the values; conditions: plasma; read-out: Plasma AUC last
Hi! Just check whether AUC(0-t) is below 7 µg·h/mL. Below gives t, equal or above gives f.

| molecule | category |
| --- | --- |
| CN1CCN(C(=O)c2ccc(-c3cn4c(-c5ccc(C#N)cc5)cnc4cn3)cc2)CC1 [Entry 1] | f |
| N#Cc1ccc(-c2cnc3ccc(-c4ccc(C(=O)N5CCOCC5)cc4)nn23)cc1 [Entry 5] | f |
| CN1CCN(C(=O)c2ccc(-c3ccc4ncc(-c5ccc(C#N)cc5)n4c3)cc2)CC1=O [Entry 3] | t |
| N#Cc1ccc(-c2cnc3ccc(-c4ccc(C(=O)N5CCOCC5)cc4)cn23)cc1 [Entry 7] | f |
| N#Cc1ccc(-c2cnc3cnc(-c4ccc(C(=O)N5CCOCC5)cc4)cn23)cc1 [Entry 10] | f |
| N#Cc1ccc(-c2cnn3ccc(-c4ccc(C(=O)N5CCOCC5)cc4)nc23)cc1 [Entry 8] | f |

* * *

Property: log10(Tmax); scope: individual compounds
assay: Pharmacokinetics assays (plasma and brain); assay type: in vivo; details: brain; read-out: Brain Tmax
quantity.name: log10(Tmax) (log10 of the value in min)

| compound | log10(Tmax) |
| --- | --- |
| N#Cc1ccc(-c2cnc3cnc(-c4ccc(C(=O)N5CCOCC5)cc4)cn23)cc1 [Entry 10] | 1.78 |
| N#Cc1ccc(-c2cnc3ccc(-c4ccc(C(=O)N5CCOCC5)cc4)cn23)cc1 [Entry 7] | 1.78 |
| CN1CCN(C2CCN(C(=O)c3ccc(-c4ccc5ncc(-c6ccc(C#N)cc6)n5c4)cc3)CC2)CC1 [Entry 4] | 2.68 |
| CN1CCN(C(=O)c2ccc(-c3ccc4ncc(-c5ccc(C#N)cc5)n4c3)cc2)CC1=O [Entry 3] | 1.18 |
| CC(=O)Nc1cc(-c2ccc3ncc(-c4ccc(C#N)cc4)n3c2)ccc1C(=O)N1CCOCC1 [Entry 9] | 1.48 |
| N#Cc1ccc(-c2cnc3ccc(-c4ccc(C(=O)N5CCNCC5)cc4)nn23)cc1 [Entry 6] | 1.18 |
| CN(C)C1CCN(C(=O)c2ccc(-c3cn4c(-c5ccc(C#N)cc5)cnc4cn3)cc2)CC1 [Entry 2] | 1.18 |
| CN1CCN(C(=O)c2ccc(-c3cn4c(-c5ccc(C#N)cc5)cnc4cn3)cc2)CC1 [Entry 1] | 1.48 |
| N#Cc1ccc(-c2cnn3ccc(-c4ccc(C(=O)N5CCOCC5)cc4)nc23)cc1 [Entry 8] | 2.08 |

* * *

Each entry below carries its recorded Tmax.
assay: Pharmacokinetics assays (plasma and brain); type: in vivo; settings: plasma; read-out: Plasma Tmax

| compound | Tmax (min) |
| --- | --- |
| CN(C)C1CCN(C(=O)c2ccc(-c3cn4c(-c5ccc(C#N)cc5)cnc4cn3)cc2)CC1 [Entry 2] | 15 |
| CC(=O)Nc1cc(-c2ccc3ncc(-c4ccc(C#N)cc4)n3c2)ccc1C(=O)N1CCOCC1 [Entry 9] | 15 |
| N#Cc1ccc(-c2cnn3ccc(-c4ccc(C(=O)N5CCOCC5)cc4)nc23)cc1 [Entry 8] | 30 |
| CN1CCN(C(=O)c2ccc(-c3ccc4ncc(-c5ccc(C#N)cc5)n4c3)cc2)CC1=O [Entry 3] | 15 |
| CN1CCN(C(=O)c2ccc(-c3cn4c(-c5ccc(C#N)cc5)cnc4cn3)cc2)CC1 [Entry 1] | 15 |
| N#Cc1ccc(-c2cnc3ccc(-c4ccc(C(=O)N5CCOCC5)cc4)cn23)cc1 [Entry 7] | 15 |
| N#Cc1ccc(-c2cnc3cnc(-c4ccc(C(=O)N5CCOCC5)cc4)cn23)cc1 [Entry 10] | 30 |
| N#Cc1ccc(-c2cnc3ccc(-c4ccc(C(=O)N5CCNCC5)cc4)nn23)cc1 [Entry 6] | 15 |
| CN1CCN(C2CCN(C(=O)c3ccc(-c4ccc5ncc(-c6ccc(C#N)cc6)n5c4)cc3)CC2)CC1 [Entry 4] | 15 |
